biological target: glucocorticoid receptor (Homo sapiens, UniProt P04150); construct: endogenous in cells; ATCC cat; experiment: Hep G2 TAT IC50: inhibition of dexamethasone-induced TAT in HepG2 cells (384 well)
Sequence (P04150 whole entry): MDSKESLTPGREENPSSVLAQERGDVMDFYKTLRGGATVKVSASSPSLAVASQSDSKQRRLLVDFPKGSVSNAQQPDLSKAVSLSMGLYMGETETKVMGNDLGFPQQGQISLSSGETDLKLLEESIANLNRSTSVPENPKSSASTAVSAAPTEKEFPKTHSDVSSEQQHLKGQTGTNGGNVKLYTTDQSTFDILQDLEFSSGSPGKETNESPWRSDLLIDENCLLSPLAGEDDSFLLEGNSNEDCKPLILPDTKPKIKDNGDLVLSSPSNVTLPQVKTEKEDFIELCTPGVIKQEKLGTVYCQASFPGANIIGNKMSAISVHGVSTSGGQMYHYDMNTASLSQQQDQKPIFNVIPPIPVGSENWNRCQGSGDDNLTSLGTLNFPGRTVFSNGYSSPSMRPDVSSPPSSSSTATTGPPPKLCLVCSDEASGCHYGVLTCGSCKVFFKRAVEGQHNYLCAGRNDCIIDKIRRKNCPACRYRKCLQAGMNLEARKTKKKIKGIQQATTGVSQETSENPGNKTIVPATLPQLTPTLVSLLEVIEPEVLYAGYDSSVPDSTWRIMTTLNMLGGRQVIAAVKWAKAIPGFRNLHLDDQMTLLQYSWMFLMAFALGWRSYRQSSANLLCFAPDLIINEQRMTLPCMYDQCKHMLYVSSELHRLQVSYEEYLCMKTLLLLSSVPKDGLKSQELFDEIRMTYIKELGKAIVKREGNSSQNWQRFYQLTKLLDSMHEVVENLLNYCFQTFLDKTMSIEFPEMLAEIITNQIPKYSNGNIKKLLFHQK
value_type: pIC50
Give bare numbers, as −log10 of the molar value.

These solved cases illustrate the format of a correct answer.
- Cc1nc(S(=O)(=O)N2CCN(CC3CCC3)C(c3cc4cnn(-c5ccc(F)cc5)c4cc3C)C2)cs1 (single isomer, unassigned): 5.94
- Cc1cc2c(cnn2-c2ccc(F)cc2)cc1C1CN(S(=O)(=O)c2cccnn2)CCN1CCC(F)(F)F (single isomer, unassigned): 6.08
- Cc1cc2c(cnn2-c2cc(C)c(=O)n(C)c2)cc1C1CN(S(=O)(=O)c2cccnc2)CCN1CCC(F)(F)F (stereo not shown): 6.35
- O=S(=O)(N1CCOCC1)N1CCN(CCC(F)(F)F)C(c2cc3cnn(-c4ccc(F)cc4)c3cc2Cl)C1 (stereo not shown): 5.59
- Cc1cc2c(cnn2-c2ccc(F)cc2)cc1C1CN(S(=O)(=O)c2cccnn2)CCN1CC(C)C (single isomer, unassigned): 5.97
- Cc1cc2c(cnn2-c2cccc(C(F)F)c2)cc1C1CN(S(=O)(=O)c2cnn(C)n2)CCN1CCC(F)(F)F (stereo not shown): 5.41
- Cc1cc2c(cnn2-c2ccc(F)cc2)cc1C1CN(S(=O)(=O)N2CCOCC2)CCN1CCC(F)(F)F (single isomer, unassigned): 5.61
- CCn1cc(S(=O)(=O)N2CCN(CCC(F)(F)F)C(c3cc4cnn(-c5cc(C)c(=O)n(C)c5)c4cc3C)C2)cn1 (stereo not shown): 6.72

Could you tell me pIC50 for each of these compounds? They are listed below.
1. Cc1cc2c(cnn2-c2ccc(F)cc2)cc1C1CN(S(=O)(=O)N(C)C)CCN1CCC(F)(F)F (single isomer, unassigned)
2. COc1cc2c(cnn2-c2ccc(F)cc2)cc1C1CN(S(=O)(=O)N(C)C)CCN1CCC(F)(F)F (stereo not shown)
3. Cc1cc2c(cnn2-c2ccccc2)cc1C1CN(S(=O)(=O)c2cnn(C)n2)CCN1CCC(F)(F)F (stereo not shown)
4. COc1cc2c(cnn2-c2ccc(F)cc2)cc1C1CN(S(=O)(=O)N2CCOCC2)CCN1CCC(F)(F)F (stereo not shown)

Result:
1. 5.78
2. 5.84
3. 5.88
4. 5.50

Could you tell me pIC50 for each of these compounds? They are listed below.
1. COc1ncc(-n2ncc3cc(C4CN(S(=O)(=O)c5cnn(C)n5)CCN4CCC(F)(F)F)c(C)cc32)cc1C (stereo not shown)
2. Cc1cc2c(cnn2-c2cc(F)c(=O)n(C)c2)cc1C1CN(S(=O)(=O)c2cnn(C)n2)CCN1CCC(F)(F)F (stereo not shown)
3. Cc1cc(-n2ncc3cc(C4CN(S(=O)(=O)c5cnn(C)n5)CCN4CCC(F)(F)F)c(C)cc32)ncn1 (stereo not shown)
4. Cc1cc2c(cnn2-c2ccc(=O)n(C)c2)cc1C1CN(S(=O)(=O)c2cccnc2)CCN1CCC(F)(F)F (stereo not shown)

Result:
5.21
6.03
5.03
6.00

* * *

molecular target: glucocorticoid receptor (Homo sapiens); construct: endogenous in cells; ATCC cat; assay: Hep G2 TAT Ki: inhibition of dexamethasone-induced TAT in HepG2 cells (96 well); details: challenge of 100 nM dexamethasone, IC50 converted to Ki by Cheng and Prusoff equation
value_type: Ki

• CC[C@H](C)N1CCN(S(=O)(=O)c2cnn(C)n2)C[C@@H]1c1cc2cnn(-c3ccc(F)cc3)c2cc1C (single isomer, unassigned) [Example 123] = 0.071 µM

Could you tell me Ki for each of these compounds? They are listed below.
1. Cc1cc2c(cnn2-c2ccc(F)cc2)cc1C1C(=O)N(S(=O)(=O)c2cnn(C)n2)CCN1CC(C)C (stereo not drawn) [Example 152]
2. Cc1cc2c(cnn2-c2ccc(F)cc2)cc1C1CN(S(=O)(=O)c2cnn(C)n2)CCN1CC1CC1C (stereo not drawn) [Example 14]
3. CC(=O)CN1CCN(S(=O)(=O)c2cnn(C)n2)CC1c1cc2cnn(-c3ccc(F)cc3)c2cc1C (single isomer, unassigned) [Example 125]
4. Cc1cc2c(cnn2-c2ccc(F)cc2)cc1C1CN(S(=O)(=O)c2nncn2C)CCN1CC(C)C (single isomer, unassigned) [Example 94]
5. Cc1cc2c(cnn2-c2ccc(F)cc2)cc1C1CN(S(=O)(=O)c2cnn(C)n2)CCN1CC1CC1 (stereo not drawn) [Example 12]
6. Cc1cc2c(cnn2-c2ccc(F)c(C#N)c2)cc1C1CN(S(=O)(=O)c2cnn(C)n2)CCN1CCC(F)(F)F (single isomer, unassigned) [Example 170]

Result:
["0.12 µM", "0.062 µM", "0.087 µM", "0.074 µM", "0.068 µM", "0.091 µM"]

Could you tell me Ki for each of these compounds? They are listed below.
1. CC(C)CN1CCN(S(=O)(=O)c2cnn(C)n2)CC1c1cc2cnn(-c3ccc(F)cc3)c2cc1Cl (stereo not drawn) [Example 24]
2. COc1ccc(CN2CCN(S(=O)(=O)c3cnn(C)n3)CC2c2cc3cnn(-c4ccc(F)cc4)c3cc2C)cc1 (stereo not drawn) [Example 3]

Result:
1. 0.073 µM
2. 0.085 µM

* * *

target: glucocorticoid receptor (Homo sapiens, UniProt P04150); construct: endogenous in cells; ATCC cat; assay: Hep G2 TAT Ki: inhibition of dexamethasone-induced TAT in HepG2 cells (96 well); conditions: challenge of 100 nM dexamethasone, IC50 converted to Ki by Cheng and Prusoff equation
value_type: pKi
One number for each entry, as −log10 of the molar value.

These solved cases illustrate the format of a correct answer.
• Cc1cc2c(cnn2-c2ccc(F)cc2)cc1C1CN(S(=O)(=O)c2cccnc2)CCN1CC(C)C (single isomer, unassigned) = 7.64
• CC[C@@H](C)N1CCN(S(=O)(=O)c2cnn(C)n2)C[C@@H]1c1cc2cnn(-c3ccc(F)cc3)c2cc1C (stereo in doubt) = 6.96
• Cc1cc2c(cnn2-c2ccc(F)cc2)cc1C1CN(S(=O)(=O)N(C)C)CCN1CC(C)C (single isomer, unassigned) = 7.19
• Cc1cc2c(cnn2-c2ccc(F)cc2)cc1C1CN(S(=O)(=O)c2nn(C)nc2C)CCN1CC(C)C (single isomer, unassigned) = 7.44
• CO[C@H]1C[C@@H](CN2CCN(S(=O)(=O)c3cnc(C)s3)C[C@@H]2c2cc3cnn(-c4ccc(F)cc4)c3cc2C)C1 (relative stereo) = 7.44

Could you tell me pKi for each of these compounds? They are listed below.
1. Cc1cc2c(cnn2-c2ccc(F)cc2)cc1C1CN(S(=O)(=O)c2cnn(C)n2)CCN1C1CCCC1 (single isomer, unassigned)
2. Cc1cc2c(cnn2-c2ccc(F)cc2)cc1C1CN(S(=O)(=O)c2cnn(C)n2)CCN1CC1(F)CC1 (single isomer, unassigned) [Example 79]
3. Cc1cc2c(cnn2-c2ccc(F)cc2)cc1C1CN(S(C)(=O)=O)CCN1Cc1ccccc1 (single isomer, unassigned)
4. Cc1cc2c(cnn2-c2ccc(F)cc2)cc1C1CN(S(=O)(=O)C2CCOCC2)CCN1CC(C)C (stereo not shown)
5. Cc1cc2c(cnn2-c2ccc(F)cc2)cc1C1CN(S(=O)(=O)c2ccn(C)n2)CCN1CC(C)C (single isomer, unassigned) [Example 1]

Result:
1: 7.33; 2: 7.54; 3: 7.13; 4: 7.03; 5: 7.46
